Quick list: EC50 per entry.
Assay target: T1, MERS-CoV-N protein (MERS-CoV, UniProt K9N4V7 1-411)
T1 construct: also called MERS-CoV nucleocapsid protein
Method: ELISA, IgG1 on recombinant N protein

[
  {
    "Binder": "antibody #7 (antibody, V domains shown, also called C07) VH: EVQLVESGGGLVQPGGSLRLSCAASGFTIEDRWIHWVRQAPGKGLEWVASIWPMEGLTRYADSVKGRFTISADTSKNTAYLQMNSLRAEDTAVYYCARGYYGFDYWGQGTLVTVSS VL: DIQMTQSPSSLSASVGDRVTITCRASQDVEARVAWYQQKPGKAPKLLIFTSTRLYSGVPSRFSGSGSGTDFTLTISSLQPEDFATYYCQQIMPLPTTFGQGTKVEIKR",
    "EC50": "> 2 µg/mL"
  },
  {
    "Binder": "antibody #21 (antibody, V domains shown, also called D21) VH: EVQLVESGGGLVQPGGSLRLSCAASGFTINNGSIHWVRQAPGKGLEWVAWIWPFGGYTYYADSVKGRFTISADTSKNTAYLQMNSLRAEDTAVYYCARGSYGYDYWGQGTLVTVSS VL: DIQMTQSPSSLSASVGDRVTITCRASQDVGSNVAWYQQKPGKAPKLLIFSAPFLYSGVPSRFSGSGSGTDFTLTISSLQPEDFATYYCQQFYDWPLTFGQGTKVEIKR",
    "EC50": "> 2 µg/mL"
  },
  {
    "Binder": "antibody #22 (antibody, V domains shown, also called D22) VH: EVQLVESGGGLVQPGGSLRLSCAASGFTISSGSIHWVRQAPGKGLEWVASIWPFGGYTSYADSVKGRFTISADTSKNTAYLQMNSLRAEDTAVYYCARGSFGSDYWGQGTLVTVSS VL: DIQMTQSPSSLSASVGDRVTITCRASQDVDDNVAWYQQKPGKAPKLLISSSSGLYSGVPSRFSGSGSGTDFTLTISSLQPEDFATYYCQQSYNGPITFGQGTKVEIKR",
    "EC50": "> 2 µg/mL"
  }
]
